biological target: EGFR (Homo sapiens, UniProt P00533); construct: endogenous in cells; host or cells: A431 cells (lysate, captured with SUMO1 anti-EGFR antibody); assay: Biochemical EGFR Assay; set-up: concentration or dose not given beside the values; conditions: protocol P.167
Sequence (P00533 25-1210): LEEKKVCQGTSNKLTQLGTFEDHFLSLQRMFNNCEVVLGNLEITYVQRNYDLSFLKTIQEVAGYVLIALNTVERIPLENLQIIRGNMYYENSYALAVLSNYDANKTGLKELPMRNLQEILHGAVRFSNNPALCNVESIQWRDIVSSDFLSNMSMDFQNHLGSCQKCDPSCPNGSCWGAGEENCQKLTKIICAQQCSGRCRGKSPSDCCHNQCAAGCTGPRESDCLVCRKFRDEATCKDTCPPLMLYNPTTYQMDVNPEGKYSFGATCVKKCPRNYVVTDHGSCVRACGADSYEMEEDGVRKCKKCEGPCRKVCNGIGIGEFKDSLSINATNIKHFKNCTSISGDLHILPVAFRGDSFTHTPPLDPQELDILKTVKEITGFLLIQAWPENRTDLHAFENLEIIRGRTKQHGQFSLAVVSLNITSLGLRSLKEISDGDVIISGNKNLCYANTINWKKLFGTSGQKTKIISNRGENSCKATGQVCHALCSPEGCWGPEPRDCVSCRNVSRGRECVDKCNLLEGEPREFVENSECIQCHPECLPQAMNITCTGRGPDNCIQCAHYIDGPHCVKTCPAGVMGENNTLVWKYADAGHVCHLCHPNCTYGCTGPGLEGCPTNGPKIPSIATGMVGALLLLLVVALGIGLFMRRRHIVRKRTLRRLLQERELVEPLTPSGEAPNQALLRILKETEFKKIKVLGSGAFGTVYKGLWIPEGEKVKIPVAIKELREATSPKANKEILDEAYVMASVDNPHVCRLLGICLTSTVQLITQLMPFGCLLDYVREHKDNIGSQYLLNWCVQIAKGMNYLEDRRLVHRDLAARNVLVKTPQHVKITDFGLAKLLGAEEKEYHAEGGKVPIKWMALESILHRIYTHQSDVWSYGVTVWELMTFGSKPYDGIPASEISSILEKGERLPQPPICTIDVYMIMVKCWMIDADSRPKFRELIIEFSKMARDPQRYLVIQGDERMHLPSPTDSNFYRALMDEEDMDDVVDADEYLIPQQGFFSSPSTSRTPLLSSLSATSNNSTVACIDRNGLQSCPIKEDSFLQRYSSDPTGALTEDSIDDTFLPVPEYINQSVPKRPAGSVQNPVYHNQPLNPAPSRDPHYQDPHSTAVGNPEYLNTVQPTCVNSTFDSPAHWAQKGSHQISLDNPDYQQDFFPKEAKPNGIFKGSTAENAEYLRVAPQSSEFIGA
Label Satisfied when Biochem EGFR % Inhibition (P.167) is at or above 10%; anything below gets Not satisfied.

[
  {
    "MOLECULE": "COc1ccc(C=C2C(=O)Nc3ccc(CCCl)cc32)cc1O",
    "GROUP": "Satisfied"
  },
  {
    "MOLECULE": "CN(C)CCCOc1ccc(C=C2C(=O)Nc3ccc(CCCl)cc32)cc1",
    "GROUP": "Not satisfied"
  },
  {
    "MOLECULE": "O=C1Nc2ccc(CCCl)cc2C1=Cc1ccc(O)cc1Cl",
    "GROUP": "Not satisfied"
  },
  {
    "MOLECULE": "CCOc1ccc(C=C2C(=O)Nc3ccc(CCCl)cc32)cc1",
    "GROUP": "Satisfied"
  },
  {
    "MOLECULE": "CNS(=O)(=O)c1ccc2c(c1)C(=Cc1cccc(O)c1O)C(=O)N2",
    "GROUP": "Satisfied"
  }
]

IN: Is it the case that O=C1Nc2ccc(S(=O)(=O)Nc3ccc(C(F)(F)F)cc3)cc2C1=Cc1cc(Br)cs1 has Biochem EGFR % Inhibition (P.167) reaching or exceeding 10%?
OUT: Satisfied

IN: Would you say CCOc1ccc(C=C2C(=O)Nc3ccc(I)cc32)cc1 shows Biochem EGFR % Inhibition (P.167) at minimum 10%?
OUT: Not satisfied
